The reported numbers originate from the RNAGym collection of RNA variant scans (doi:10.1093/molbev/msab373).

Each item that follows carries a reported reverse-splicing fitness.
B1: Azoarcus group I ribozyme (parent)
chain: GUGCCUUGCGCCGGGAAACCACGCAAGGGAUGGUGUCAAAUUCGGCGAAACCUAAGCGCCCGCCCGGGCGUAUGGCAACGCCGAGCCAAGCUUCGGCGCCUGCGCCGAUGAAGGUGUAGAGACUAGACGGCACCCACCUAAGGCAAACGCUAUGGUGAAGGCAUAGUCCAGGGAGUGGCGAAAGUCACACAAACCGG

Variants of: B1
Experiment: reverse-splicing fitness (ratio to wild type); higher = more active; in vitro selection; Mg2+ level not given
// return just the number, without any unit appended

See these solved cases before continuing.
[[record]]
var = "C82U C150U C169G U176C"
parameter = "reverse-splicing fitness"
quantitative_result = 0.015

[[record]]
var = "A120U A145U C169A"
parameter = "reverse-splicing fitness"
quantitative_result = 0.0173

[[record]]
var = "C82U A111C A120C A145U C150U C169A"
parameter = "reverse-splicing fitness"
quantitative_result = 0.00892


Inquiry: Suppose we examine the variant A111C A120U C150G ; what reverse-splicing fitness value has been reported?
Reply text: 0.0546

Inquiry: Cool, now C82U A120G A145U C169A U176C
Reply text: 0.0105

Inquiry: Item: C82G A111G A120C A145C C150U U176C
Reply text: 0.0167

Inquiry: Can you check C82G A120G A145C C169G next?
Reply text: 0.0468

Inquiry: // query: A120C A145U C169G U176G
Reply text: 0.0038

Inquiry: What do you have for C82U A111G A120G A145G C169U U176A ?
Reply text: 0.0209

Inquiry: Now consider C82G A111U A120U A145C C150A C169A U176C and answer again.
Reply text: 0.00215
